Exercise: state measured MIC for each of the compounds provided.
# System: Pseudomonas aeruginosa ATCC 15692
# PROTOCOL SUMMARY: ≥ marks a high value that may be exact or a test limit, other limits are often not marked, values filed in µg/mL are converted to µM
Numbers only, in µM.

These recorded examples may help you get a feel for the data.
COMPOUND	TESTED TARGET	MIC (µM)
CC(C)C[C@H](NC(=O)[C@H](Cc1c[nH]c2ccccc12)NC(=O)[C@H](CCCCN)NC(=O)[C@H](CCCCN)NC(=O)[C@H](CC(C)C)NC(=O)[C@H](Cc1c[nH]c2ccccc12)NC(=O)[C@H](CCCCN)NC(=O)[C@H](CCCCN)NC(=O)[C@H](CC(C)C)NC(=O)[C@H](Cc1c[nH]c2ccccc12)NC(=O)[C@@H](N)CCCCN)C(=O)N[C@@H](CCCCN)C(N)=O [KWLKKWLKKWLK]	Pseudomonas aeruginosa ATCC 15692	2
CC[C@H](C)[C@H](NC(=O)[C@H](CCCN=C(N)N)NC(=O)CNC(=O)[C@H](CC(C)C)NC(=O)[C@H](Cc1ccccc1)NC(=O)[C@H](CCCN=C(N)N)NC(=O)[C@H](CO)NC(=O)[C@H](Cc1ccccc1)NC(=O)[C@H](Cc1c[nH]c2ccccc12)NC(=O)[C@H](CCCN=C(N)N)NC(=O)[C@@H](NC(=O)[C@@H](N)Cc1ccccc1)C(C)C)C(=O)N[C@@H](CC(C)C)C(N)=O [FVRWFSRFLGRIL]	Pseudomonas aeruginosa ATCC 15692	24
CC(C)[C@H](NC(=O)[C@H](Cc1c[nH]c2ccccc12)NC(=O)[C@H](CCCCN)NC(=O)[C@H](CCCCN)NC(=O)[C@@H](NC(=O)[C@H](Cc1c[nH]c2ccccc12)NC(=O)[C@H](CCCCN)NC(=O)[C@H](CCCCN)NC(=O)[C@@H](NC(=O)[C@H](Cc1c[nH]c2ccccc12)NC(=O)[C@@H](N)CCCCN)C(C)C)C(C)C)C(=O)N[C@@H](CCCCN)C(N)=O [KWVKKWVKKWVK]	Pseudomonas aeruginosa ATCC 15692	4

Turning now to a further record.
Problem: What value of measured MIC is listed for CC[C@H](C)[C@H](NC(=O)[C@H](CCCN=C(N)N)NC(=O)CNC(=O)[C@H](CC(C)C)NC(=O)[C@H](Cc1ccccc1)NC(=O)[C@H](CCCN=C(N)N)NC(=O)[C@H](CO)NC(=O)[C@H](Cc1ccccc1)NC(=O)[C@H](Cc1c[nH]c2ccccc12)NC(=O)[C@H](CCC(N)=O)NC(=O)[C@@H](NC(=O)[C@@H](N)Cc1ccccc1)C(C)C)C(=O)N[C@@H](CC(C)C)C(N)=O [FVQWFSRFLGRIL] ?
Result: 24
